Test system: Enterococcus faecalis 28
Construct: 28
TEST_PROTOCOL: microbe, parasite or virus in culture
Parameters: CLSI broth microdilution MIC in MHB-II
CONDITION: Enterococcus faecalis, 28, 18 h, read-out: MIC
Protocol: MICs were determined by a microdilution broth method as recommended by the CLSI with MHB-II. For MICs of stable analogues, a 2-fold dilution of each compound was prepared in DMSO at 100-fold of the final concentration. […] The plates were incubated at 37 °C for 18 h and then MICs were determined. […] MICs in Supplementary Table 1 were determined in one trial.
ENDPOINT_LABEL: MIC (µg/mL)
State just the number; it will be interpreted in µg/mL.

[in] Returns the measured MIC for the input molecule. Input: CC1(C)S[C@@H]2[C@H](NC(=O)[C@H](N)c3ccccc3)C(=O)N2[C@H]1C(=O)O
[out] 1

[in] Returns the measured MIC for the input molecule. Input: CN[C@H](CC(C)C)C(=O)N[C@H]1C(=O)N[C@@H](CC(N)=O)C(=O)N[C@H]2C(=O)N[C@H]3C(=O)N[C@H](C(=O)N[C@H](C(=O)O)c4cc(O)cc(O)c4-c4cc3ccc4O)[C@H](O)c3ccc(c(Cl)c3)Oc3cc2cc(c3O[C@@H]2O[C@H](CO)[C@@H](O)[C@H](O)[C@H]2O[C@H]2C[C@](C)(N)[C@H](O)[C@H](C)O2)Oc2ccc(cc2Cl)[C@H]1O
[out] 1
